- protocol description: in vivo
- condition parameters: beagle, dog, po, 20 mg/kg, AUC0-24

compound: CC[C@H]1OC(=O)[C@H](C)[C@@H](O[C@H]2C[C@@](C)(OC)[C@@H](O)[C@H](C)O2)[C@H](C)[C@@H](O[C@@H]2O[C@H](C)C[C@H](N(C)C)[C@H]2O)[C@](C)(O)C[C@@H](C)CN(C)[C@H](C)[C@@H](O)[C@]1(C)O.O=C(O)C[C@H](O)C(=O)O [Azithromycin L-malate monohydrate, azithromycin L-malate monohydrate]
AUC(0-t) (ng·h/mL): 27600
--
compound: CC[C@H]1OC(=O)[C@H](C)[C@@H](O[C@H]2C[C@@](C)(OC)[C@@H](O)[C@H](C)O2)[C@H](C)[C@@H](O[C@@H]2O[C@H](C)C[C@H](N(C)C)[C@H]2O)[C@](C)(O)C[C@@H](C)CN(C)[C@H](C)[C@@H](O)[C@]1(C)O [Azithromycin dihydrate, reference compound]
AUC(0-t) (ng·h/mL): 20600

* * *

- protocol description: Pharmacokinetic test, azithromycin concentration in blood
- condition parameters: beagle, dog, plasma, po, 20 mg/kg
observed property: Tmax (min)

compound: CC[C@H]1OC(=O)[C@H](C)[C@@H](O[C@H]2C[C@@](C)(OC)[C@@H](O)[C@H](C)O2)[C@H](C)[C@@H](O[C@@H]2O[C@H](C)C[C@H](N(C)C)[C@H]2O)[C@](C)(O)C[C@@H](C)CN(C)[C@H](C)[C@@H](O)[C@]1(C)O [Azithromycin dihydrate, reference compound]
reported: 48

* * *

- protocol description: Water-solubility test
- Format: physicochemical
- condition parameters: deionized water, water, thermodynamic from solid; 25° C.; based on amount of azithromycin dissolved; read-out: Solubility, deionized water
Here the recorded solubility is given for each entry.
observed property: solubility

molecule: CC[C@H]1OC(=O)[C@H](C)[C@@H](O[C@H]2C[C@@](C)(OC)[C@@H](O)[C@H](C)O2)[C@H](C)[C@@H](O[C@@H]2O[C@H](C)C[C@H](N(C)C)[C@H]2O)[C@](C)(O)C[C@@H](C)CN(C)[C@H](C)[C@@H](O)[C@]1(C)O.O=C(O)C[C@H](O)C(=O)O [Azithromycin L-malate monohydrate, azithromycin L-malate monohydrate]
observed property: solubility
reported: 393 mg/mL
--
molecule: CC[C@H]1OC(=O)[C@H](C)[C@@H](O[C@H]2C[C@@](C)(OC)[C@@H](O)[C@H](C)O2)[C@H](C)[C@@H](O[C@@H]2O[C@H](C)C[C@H](N(C)C)[C@H]2O)[C@](C)(O)C[C@@H](C)CN(C)[C@H](C)[C@@H](O)[C@]1(C)O [Azithromycin dihydrate, reference compound]
observed property: solubility
reported: 0.1 mg/mL

* * *

- protocol description: in vivo
- condition parameters: beagle, dog, po, 20 mg/kg
Here the recorded Cmax is given for each entry.
observed property: Cmax (µg/mL)

molecule: CC[C@H]1OC(=O)[C@H](C)[C@@H](O[C@H]2C[C@@](C)(OC)[C@@H](O)[C@H](C)O2)[C@H](C)[C@@H](O[C@@H]2O[C@H](C)C[C@H](N(C)C)[C@H]2O)[C@](C)(O)C[C@@H](C)CN(C)[C@H](C)[C@@H](O)[C@]1(C)O [Azithromycin dihydrate, reference compound]
reported: 1.95

molecule: CC[C@H]1OC(=O)[C@H](C)[C@@H](O[C@H]2C[C@@](C)(OC)[C@@H](O)[C@H](C)O2)[C@H](C)[C@@H](O[C@@H]2O[C@H](C)C[C@H](N(C)C)[C@H]2O)[C@](C)(O)C[C@@H](C)CN(C)[C@H](C)[C@@H](O)[C@]1(C)O.O=C(O)C[C@H](O)C(=O)O [Azithromycin L-malate monohydrate, azithromycin L-malate monohydrate]
reported: 3.78

* * *

Here the recorded solubility is given for each entry.
- protocol description: Water-solubility test
- Type: physicochemical
- condition parameters: phosphoric acid buffer solution, aqueous buffer, thermodynamic from solid; 25° C.; phosphoric acid buffer pH 7; based on amount of azithromycin dissolved; read-out: Solubility, buffer solution (pH 7)

compound: CC[C@H]1OC(=O)[C@H](C)[C@@H](O[C@H]2C[C@@](C)(OC)[C@@H](O)[C@H](C)O2)[C@H](C)[C@@H](O[C@@H]2O[C@H](C)C[C@H](N(C)C)[C@H]2O)[C@](C)(O)C[C@@H](C)CN(C)[C@H](C)[C@@H](O)[C@]1(C)O.O=C(O)C[C@H](O)C(=O)O [Azithromycin L-malate monohydrate, azithromycin L-malate monohydrate]
solubility: 392 mg/mL
//
compound: CC[C@H]1OC(=O)[C@H](C)[C@@H](O[C@H]2C[C@@](C)(OC)[C@@H](O)[C@H](C)O2)[C@H](C)[C@@H](O[C@@H]2O[C@H](C)C[C@H](N(C)C)[C@H]2O)[C@](C)(O)C[C@@H](C)CN(C)[C@H](C)[C@@H](O)[C@]1(C)O [Azithromycin dihydrate, reference compound]
solubility: 5.1 mg/mL

* * *

- protocol description: in vivo
- condition parameters: beagle, dog, po, 20 mg/kg
observed property: Tmax (min)

compound: CC[C@H]1OC(=O)[C@H](C)[C@@H](O[C@H]2C[C@@](C)(OC)[C@@H](O)[C@H](C)O2)[C@H](C)[C@@H](O[C@@H]2O[C@H](C)C[C@H](N(C)C)[C@H]2O)[C@](C)(O)C[C@@H](C)CN(C)[C@H](C)[C@@H](O)[C@]1(C)O.O=C(O)C[C@H](O)C(=O)O [Azithromycin L-malate monohydrate, azithromycin L-malate monohydrate]
observed property: Tmax
reported: 36
